Data provenance: PubChem BioAssay AID1850

A collection of compounds and their measured inhibition
assay explanation: PhoP regulon inhibitors, Salmonella typhi PhoP promoter GFP reporter, confirmatory (AID 1850);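 also: 0% = induced wells with vehicle and 100% = uninduced wells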
condition context: fluorescence, 4 h, at 50 µM, hits give high values
Among all 310,000 compounds or so, about 1,000 (0.32%) were called active. Not all results are given here. Potency and affinity values are given separately.
parameter measured: inhibition (%)

1) CCN1CCN(CCNC(=O)c2ccc(/C=C3/Sc4ccccc4N(Cc4cccc(Cl)c4)C3=O)cc2)CC1
47.7
2) CN1CCN(C(c2ccccc2)c2ccccc2)CC1
-1.19
3) COc1ccc(NC(=O)CNCCC2=CCCCC2)cc1
-8.03
4) CCOC(=O)c1nnn(-c2nonc2-n2cccc2)c1CN1CCCCC1
-6.4
5) Cc1cc(C)c(OCCCNCc2ccccc2)c(Br)c1
13.8
6) CCN1CCN(CCNC(=O)c2ccc3c(c2)N(Cc2ccc(F)cc2)C(=O)c2ccccc2S3=O)CC1 (stereo unspecified)
-3.27
7) O=C(O)c1cc(S(=O)(=O)N2CCN(C(c3ccccc3)c3ccccc3)CC2)ccc1Cl
-2.19
8) COCCCNCCCCOc1c(Cl)cc(C)cc1Br
1.04
9) O=C(CNCCC1=CCCCC1)Nc1ccccc1N1CCCCCC1
5.47
10) COC(=O)c1cc(Nc2cc(C)c3c(O)cccc3n2)cc(C(=O)OC)c1
-3.04
11) Cc1ccccc1N1C(=O)c2sc3nc4c(c(=O)n3c2C1=O)CCC4
0.93

----------
A collection of compounds and their measured inhibition
assay explanation: PhoP regulon inhibitors, Salmonella typhi PhoP promoter GFP reporter, confirmatory (AID 1850);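 also: 0% = induced wells with vehicle and 100% = uninduced wells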
condition context: fluorescence, 4 h, at 50 µM, hits give high values
Hit rate of the full screen: of about 310,000 compounds, about 1,000 (0.32%) were called active. The list is a sample of the results. Entries with a potency or affinity are not part of this list.
parameter measured: inhibition (%)

1. CCOc1ccc(Br)cc1CSC(=N)N
-6.33
2. CCn1c(SCC(=O)NCc2ccccc2)nnc1C(CO)NC(=O)c1ccccc1 (stereo unspecified)
-10.3
3. CCCOc1ccc(Br)cc1CSC(=N)N
20.4
4. C/C(=N\OC(=O)c1c(-c2ccccc2Cl)noc1C)c1nccs1
-7.14
5. C#CCOCCOCCOCCNc1nc(N2CCN(C(=O)[C@H](CCC(=O)O)n3cc(C(N)Cc4ccc(O)cc4)nn3)CC2)nc(N2CCN(C(=O)[C@H](Cc3cc4ccccc4[nH]3)n3cc(C(N)CC(C)C)nn3)CC2)n1 (stereo partly specified)
5.34
6. C#CCOCCOCCOCCNc1nc(N2CCN(C(=O)[C@H](Cc3ccc(O)cc3)n3cc([C@@H](N)C(C)CC)nn3)CC2)nc(N2CCN(C(=O)[C@H](Cc3cc4ccccc4[nH]3)n3cc([C@@H](N)CC(C)C)nn3)CC2)n1 (stereo partly specified)
11
7. CCOc1ccc(OCCNC2CCCC2)cc1
6.72
8. C#Cc1ccc([C@@H]2C=C(C(=O)NCc3ccccc3)O[C@H](OCCCCO)C2)cc1
-19.4
9. Cc1ccc(OCCCNC2CCCC2)cc1
2.57
10. C#CCOCCOCCOCCNc1nc(N2CCN(C(=O)[C@H]([C@@H](C)CC)n3cc([C@@H](N)CC(C)C)nn3)CC2)nc(N2CCN(C(=O)[C@H](Cc3cc4ccccc4[nH]3)n3cc([C@@H](N)Cc4ccc(O)cc4)nn3)CC2)n1
-29.1
11. CC1(C)C2CC[C@]3(C)C(CC=C4[C@@H]5C[C@@](C)(CO)[C@@H](O)C[C@]5(C(=O)O)CC[C@]43C)[C@@]2(C)CC[C@@H]1O (stereo partly specified)
-13.5
12. C#CCOCCOCCOCCNc1nc(N2CCN(C(=O)C(CCC(=O)O)n3cc(C(N)CC(C)C)nn3)CC2)nc(N2CCN(C(=O)C(Cc3cc4ccccc4[nH]3)n3cc(C(N)Cc4ccc(O)cc4)nn3)CC2)n1 (stereo unspecified)
-1.42
13. COCCCNC(=S)NNC(=O)c1cccnc1
1.9
14. CC(C)Cc1nnc(NC(=O)CCC(=O)N2CCN(c3ccccn3)CC2)s1
-13
15. COc1cccc(C(=O)Nc2ccc(NC(=O)Cc3ccccc3)cc2)c1
-3.24
16. O=C(c1ccc(F)cc1)N1CCN(C2CC3CCC2C3)CC1 (stereo unspecified)
-3.63
17. Cc1cccc(N2CCN(Cc3nc(-c4cccc(Cl)c4)oc3C)CC2)n1
-3.9
18. COc1cc(CNCCCN2CCOCC2)ccc1OCC(=O)Nc1cccc(C(F)(F)F)c1
8.04
19. C#CCOCCOCCOCCNc1nc(N2CCN(C(=O)C(Cc3ccc(O)cc3)n3cc(C(N)CC(C)C)nn3)CC2)nc(N2CCN(C(=O)C(Cc3cc4ccccc4[nH]3)n3cc(C(N)C(C)CC)nn3)CC2)n1 (stereo unspecified)
18.1
20. CCOc1cc(CNCCCN2CCOCC2)ccc1OCC(=O)Nc1cccc2ccccc12
9.38
21. Cc1ccc(C(=O)Nn2cnnc2)cc1
-11.2
22. C=CCNC(=S)N1CCN(c2ncc3c(=O)c(C(=O)O)cn(CC)c3n2)CC1
-7.57
23. Cc1[nH]c2ccccc2c1C(=O)CN1C(=O)C(=O)N(Cc2ccco2)C1=O
-2.82
24. COc1ccc(OCC(=O)Nc2c3c(nn2-c2ccccc2)CS(=O)(=O)C3)cc1
-4.09
25. COCCCNC(=S)NNC(=O)c1csc(C)n1
3.64
26. COc1c2n(C)ccc3c-2n(c(=O)c1=O)c1ccccc31
17.2
27. CC(=O)NC(=S)NNC(=O)CCc1ccccc1
-2.11
28. CN(C)CCCNc1ccc(-c2n[nH]c(=O)c3ccccc23)cc1[N+](=O)[O-]
-4.76
29. CCCCCCCCCC(=O)N1CCN(c2cc3c(cc2F)c(=O)c(C(=O)O)cn3CC)CC1
-9.96
30. COC(=O)c1c(NC(=O)CSc2nnc(Cn3nnc4ccccc43)n2C)sc(C)c1C
8.24
31. C/C(CC(=O)NC1C2CC3CC(C2)CC1C3)=N\NC(=O)Cc1cccs1 (stereo unspecified)
5.86
32. O=C(Oc1cccc(NC(=O)c2ccco2)c1)c1cccc(S(=O)(=O)N2CCCCC2)c1
2.38
33. C#CCOCCOCCOCCNc1nc(N2CCN(C(=O)[C@H]([C@@H](C)CC)n3cc([C@@H](N)Cc4ccc(O)cc4)nn3)CC2)nc(N2CCN(C(=O)[C@H](Cc3cc4ccccc4[nH]3)n3cc([C@@H](N)C(C)CC)nn3)CC2)n1 (stereo partly specified)
17.7
34. CC(=O)N1CCN(c2ccccc2NC(=O)Cc2ccc(Cl)cc2)CC1
-3.34
35. Cc1ccc(N=Nc2ccc(O)c3ncccc23)cc1
-8.35
36. Cc1ccc(C(=O)NNC(=S)NC(=O)c2ccc(Cl)cc2)cc1
6.07

----------
assay explanation: PhoP regulon inhibitors, Salmonella typhi PhoP promoter GFP reporter, confirmatory (AID 1850);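 also: 0% = induced wells with vehicle and 100% = uninduced wells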
condition context: fluorescence, 4 h, at 50 µM, hits give high values
Hit rate of the full screen: of about 310,000 compounds, about 1,000 (0.32%) were called active. Not all results are given here. Entries with a potency or affinity are not part of this list.
A collection of compounds and their measured inhibition
parameter measured: inhibition (%)

1. CC1CCC(NC(=O)c2nn(C)c3c2CS(=O)(=O)c2ccccc2-3)CC1 (configuration not stated)
5.03
2. CCCCNC(=S)NCC(c1ccccc1)c1c[nH]c2ccccc12 (configuration not stated)
0.6
3. Cc1ccccc1Nc1nc(NCc2ccco2)c2ccccc2n1
-14.1
4. CC1(C)CC(=O)C=C(Nc2ccc(C(=O)O)c(O)c2)C1
-4.27
5. O=S(=O)(Cc1ccccc1Cl)NCCc1ccccc1
0.01
6. COc1ccc(C(=O)NC2CC2)cc1OC1CCN(Cc2ccc(F)cc2Cl)CC1
-3.14
7. O=C(c1ccccc1)N1N=C(C(F)(F)F)CC1(O)c1ccc(F)cc1 (configuration not stated)
-5.13
8. Cc1ccc2cc(CCNC(=O)c3cccs3)c(=O)[nH]c2c1C
3.08
9. C[n+]1c(-c2ccccc2)sc2ccccc21
-0.28
10. NCCc1nnc(SCC(=O)Nc2cccc(Cl)c2)o1
5.27
11. C/C(=N\NC(=O)c1ccc(Cl)c(Cl)c1)c1ccccn1
3.95
12. COc1ccc(C(C[N+](=O)[O-])n2nc(C)cc2C)cc1 (configuration not stated)
3.95
13. O=C(O)/C(=C\c1cccs1)c1ccc(F)cc1
-11.8
14. Cc1cccc(OCc2nc(C#N)c(NCCN(C)C)o2)c1
-1.98
15. COc1cccc(NC(=O)CCCCCN2C(=O)[C@@H]3Cc4ccccc4CN3C2=O)c1
6.78
16. Cc1cccc(Nc2nc(NCc3ccco3)nc(N)c2[N+](=O)[O-])c1
-3.95
17. COc1ccccc1-n1c(C)cc(C=O)c1C
-1.75
18. Cc1cc(C)c2nc(C)cc(Nc3ccc(C(=O)NCCO)cc3)c2c1
1.42
19. COc1cc([N+](=O)[O-])ccc1NC(=O)CSc1nnc(C)c(C)n1
13.2
20. COc1cc(C)c(CN2CCC(n3nccc3NC(=O)C3CCOC3)CC2)cc1C (configuration not stated)
-6.02
21. COc1ccc(CNC(=O)c2ccc3c(=O)n(-c4ccccc4)c(=O)[nH]c3c2)cc1
9.07
22. Cc1ccn2cc(-c3cccc(NS(C)(=O)=O)c3)nc2c1
-0.47
23. OCCNc1nc(Nc2ccc(O)cc2)nc2ccccc12
1.07
24. O=S1(=O)CCOC[C@H](c2ccccc2)N1Cc1cccc(Cl)c1
9.33
25. CCCn1c(SCC(=O)OCc2ccccc2)nc2c1c(=O)n(C)c(=O)n2C
-3.63
26. NNC(=O)C(=O)Nc1ccc(Cl)c(Cl)c1
-4.15
27. COc1ccc(C)cc1Nc1n[n+](-c2ccccc2)c(-c2ccc(N(C)C)cc2)s1
-6.34
28. COc1ccc(NC(=O)C2CCCN(S(=O)(=O)c3ccccc3)C2)c(OC)c1 (configuration not stated)
0.45
29. OC(CN1CCCCC1)Cn1c2ccccc2c2ccccc21 (configuration not stated)
-5.86
30. CCCN1C(=O)/C(=C/c2cc(C)n(C)c2C)SC1=Nc1ccc(OC)cc1
0.64
31. O=C(CSC1=NC(=O)C(c2ccccc2)C(=O)N1)Nc1ccccc1Cl (configuration not stated)
7.4
32. COc1ccc(OC)c(S(=O)(=O)N2CCC(C(=O)NCc3ccc4c(c3)OCO4)CC2)c1
-8.79
33. Cn1c(SCc2cccc(F)c2)nnc1-c1cnccn1
-1.53
34. Nc1nnc(SCC(=O)OCC(=O)c2ccccc2Br)s1
1.19
35. COc1ccc(C2(CNC(=O)/C=C\c3ccco3)CCCC2)cc1OC
-2.04
36. O=C(CC1(CC2=NS(=O)(=O)c3ccccc3N2)CCCC1)NCCc1ccccc1
-20.4
37. c1ccc(CN2CCN(C(c3ccccc3)c3nnnn3Cc3ccccc3)CC2)cc1 (configuration not stated)
-8.11
38. O=C(Cn1c(=O)oc2ccccc21)NCCc1ccccc1
-10.1
39. Cc1cc(C)n(C(C[N+](=O)[O-])c2ccc(Cl)cc2)n1 (configuration not stated)
17.4
40. C/C(=N\NC(=O)c1cc(Br)ccc1O)c1ccccn1
1.41
41. COc1cccc(-c2nc(NCc3ccco3)c3ccccc3n2)c1O
-5.74
42. CCOc1ccc(S(=O)(=O)NCCC(=O)NCc2cccnc2)cc1
9.15
43. CC(=O)NC1C(=O)N=C(SCC(=O)Nc2cccc(Cl)c2)NC1=O (configuration not stated)
11.8
44. CCCNC(=O)COC(=O)c1ccc(S(=O)(=O)N2CCCCCC2)cc1
-7.39
45. Cc1ccc(NC(=O)CSCC#N)cc1Cl
-2.58
46. COc1cccc(COc2ncnc3sccc23)c1
3.57
47. COc1ccc(OCC(O)CNCc2ccco2)cc1 (configuration not stated)
0.683
